system-tested: UniProt Q9NP59
assay-overview: T47D cell-based ferroportin internalization assay in presence of 0.5% mouse serum albumin (MSA)
conditions-used: T47D cells
measure: IC50

Some compounds with known IC50 results, for comparison:
CCCCCCCCCCCCCCCC(=O)NCCCCCC(=O)NCCCC[C@H](NC(=O)C[C@H](Cc1ccccc1)NC(=O)[C@@H]1CC=CCC[C@H](NC(=O)CC(C)C)C(=O)N[C@@H]([C@@H](C)O)C(=O)N[C@@H](Cc2c[nH]cn2)C(=O)N[C@@H](C(c2ccccc2)c2ccccc2)C(=O)N2CCC[C@H]2C(=O)N[C@@H](C)C(=O)N[C@@H]([C@@H](C)CC)C(=O)N1)C(=O)N[C@H](CCCCN)C(N)=O [Compd 26]; 10 to 100 nM
CCCCCCCCCCCCCCCC(=O)NCCCCCC(=O)NCCCC[C@H](NC(=O)C[C@H](Cc1ccccc1)NC(=O)[C@H]1CCCC=CCC[C@@H](NC(=O)CC(C)C)C(=O)N[C@@H]([C@@H](C)O)C(=O)N[C@@H](Cc2c[nH]cn2)C(=O)N[C@@H](C(c2ccccc2)c2ccccc2)C(=O)N2CCC[C@H]2C(=O)N[C@@H](C)C(=O)N[C@@H]([C@@H](C)CC)C(=O)N1)C(=O)N[C@H](CCCCN)C(N)=O [Compd 71]; 100 to 500 nM

Query string: For the compound CCCCCCCCCCCCCCCC(=O)NCCCCCC(=O)NCCCC[C@H](NC(=O)C[C@H](Cc1ccccc1)NC(=O)[C@@H]1CCC=CCCC[C@H](NC(=O)CC(C)C)C(=O)N[C@@H]([C@@H](C)O)C(=O)N[C@@H](Cc2c[nH]cn2)C(=O)N[C@@H](C(c2ccccc2)c2ccccc2)C(=O)N2CCC[C@H]2C(=O)N[C@@H](C)C(=O)N[C@@H]([C@@H](C)CC)C(=O)N1)C(=O)N[C@H](CCCCN)C(N)=O [Compd 29] , report IC50.
Result string: 1 to 10 nM

* * *

Overview of reported IC50 across a group of compounds:
system-tested: ferroportin (Homo sapiens)
assay-overview: T47D cell-based ferroportin internalization assay in presence of 0.5% mouse serum albumin (MSA)
conditions-used: T47D cells
Numbered stars: 1 amine (or outer) side, 2 acyl side, 3 side chain; on linkers, the order of the positions; unused ones are H or OH. Bridge positions count the residues as written; N and C are the ends. Square brackets hold non-standard residues; d marks the D form. Side chains are listed from the residue outwards. Peptide text beside a SMILES is read from it. * marks the point of attachment. Dip = N[C@H](C(=O)O)C(c1ccccc1)c1ccccc1; Hag = O=C([C@H](CCC=[*:3])N[*:1])[*:2]; Palmitoyl = CCCCCCCCCCCCCCCC(=O)*; tBuAla = CC(C)(C)C[C@H](N)C(=O)O; β3hF = N[C@H](CC(=O)O)Cc1ccccc1; Isovaleryl = CC(C)CC(=O)*; Ahx = NCCCCCC(=O)O

Query string: Find IC50 for CCCCCCCCCCCCCCCC(=O)NCCCCCC(=O)NCCCC[C@H](NC(=O)C[C@H](Cc1ccccc1)NC(=O)[C@@H]1CCCC=CCC[C@H](NC(=O)CC(C)C)C(=O)N[C@@H]([C@@H](C)O)C(=O)N[C@@H](Cc2c[nH]cn2)C(=O)N[C@@H](C(c2ccccc2)c2ccccc2)C(=O)N2CCC[C@H]2C(=O)N[C@@H](C)C(=O)N[C@@H]([C@@H](C)CC)C(=O)N1)C(=O)N[C@H](CCCCN)C(N)=O on ferroportin (Homo sapiens) and write it down.
Result string: 10 to 100 nM

Query string: Write down the reported IC50 (system: ferroportin (Homo sapiens)) of CCCCCCCCCCCCCCCC(=O)NCCCCCC(=O)NCCCC[C@H](NC(=O)C[C@H](Cc1ccccc1)NC(=O)[C@@H]1CCC=CCC[C@@H](NC(=O)CC(C)C)C(=O)N[C@@H]([C@@H](C)O)C(=O)N[C@@H](Cc2c[nH]cn2)C(=O)N[C@@H](C(c2ccccc2)c2ccccc2)C(=O)N2CCC[C@H]2C(=O)N[C@@H](C)C(=O)N[C@@H]([C@@H](C)CC)C(=O)N1)C(=O)N[C@H](CCCCN)C(N)=O
Result string: 100 to 500 nM

Query string: Find IC50 for CCCCCCCCCCCCCCCC(=O)NCCCCCC(=O)NCCCC[C@H](NC(=O)C[C@H](Cc1ccccc1)NC(=O)[C@@H]1CCC=CCC[C@H](NC(=O)CC(C)C)C(=O)N[C@@H]([C@@H](C)O)C(=O)N[C@@H](Cc2c[nH]cn2)C(=O)N[C@@H](C(c2ccccc2)c2ccccc2)C(=O)N2CCC[C@H]2C(=O)N[C@@H](C)C(=O)N[C@@H](CC(C)(C)C)C(=O)N1)C(=O)N[C@H](CCCCN)C(N)=O [Compd 63] (Isovaleryl-[Hag]TH[Dip]PA[tBuAla][Hag][β3hF]K([Ahx-Palmitoyl])[dK]-NH2; staple 1-8) on ferroportin (Homo sapiens) and write it down.
Result string: 1 to 10 nM

Query string: Using ferroportin (Homo sapiens) as the test system, report measured IC50 of CCCCCCCCCCCCCCCC(=O)NCCCCCC(=O)NCCCC[C@H](NC(=O)C[C@H](Cc1ccccc1)NC(=O)[C@@H]1CCC=CCC[C@H](NC(=O)CC(C)C)C(=O)N[C@@H]([C@@H](C)O)C(=O)N[C@@H](Cc2c[nH]cn2)C(=O)N[C@@H](C(c2ccccc2)c2ccccc2)C(=O)N2CCC[C@H]2C(=O)N[C@@H](C)C(=O)N[C@@H]([C@@H](C)CC)C(=O)N1)C(=O)N[C@@H](C)C(N)=O [Compd 48] (Isovaleryl-[Hag]TH[Dip]PAI[Hag][β3hF]K([Ahx-Palmitoyl])A-NH2; staple 1-8) .
Result string: 10 to 100 nM

Query string: Answer with IC50 of CCCCCCCCCCCCCCCC(=O)NCCCCCC(=O)NCCCC[C@H](NC(=O)C[C@H](Cc1ccccc1)NC(=O)[C@@H]1CCCC=CCCC[C@H](NC(=O)CC(C)C)C(=O)N[C@@H]([C@@H](C)O)C(=O)N[C@@H](Cc2c[nH]cn2)C(=O)N[C@@H](C(c2ccccc2)c2ccccc2)C(=O)N2CCC[C@H]2C(=O)N[C@@H](C)C(=O)N[C@@H]([C@@H](C)CC)C(=O)N1)C(=O)N[C@H](CCCCN)C(N)=O measured for ferroportin (Homo sapiens).
Result string: 1 to 10 nM

* * *

system-tested: human ferroportin (SLC40A1) (Homo sapiens, UniProt Q9NP59)
Sequence (Q9NP59 whole entry): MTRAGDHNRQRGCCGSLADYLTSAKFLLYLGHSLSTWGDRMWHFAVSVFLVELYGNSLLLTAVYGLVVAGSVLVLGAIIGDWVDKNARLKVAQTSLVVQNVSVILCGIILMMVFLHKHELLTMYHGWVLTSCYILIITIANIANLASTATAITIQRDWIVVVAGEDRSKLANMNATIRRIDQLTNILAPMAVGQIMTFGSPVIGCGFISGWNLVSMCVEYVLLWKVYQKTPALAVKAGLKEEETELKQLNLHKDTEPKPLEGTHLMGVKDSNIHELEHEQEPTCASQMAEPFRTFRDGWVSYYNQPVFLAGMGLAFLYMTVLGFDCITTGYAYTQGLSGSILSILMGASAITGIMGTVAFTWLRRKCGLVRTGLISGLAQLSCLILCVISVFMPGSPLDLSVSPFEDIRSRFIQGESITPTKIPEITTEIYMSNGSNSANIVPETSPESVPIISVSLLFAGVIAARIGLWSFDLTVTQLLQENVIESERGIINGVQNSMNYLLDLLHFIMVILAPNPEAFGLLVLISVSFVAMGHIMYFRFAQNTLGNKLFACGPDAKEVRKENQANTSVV
assay-overview: FPN activity assay: internalization/degradation of ferroportin-GFP in stably transfected HEK293 cells (decrease in GFP fluorescence)
conditions-used: compound incubated at least 18 hours
pIC50: −log10 of the molar value. Numbered stars: 1 amine (or outer) side, 2 acyl side, 3 side chain; on linkers, the order of the positions; unused ones are H or OH. Bridge positions count the residues as written; N and C are the ends. Square brackets hold non-standard residues; d marks the D form. Side chains are listed from the residue outwards. Peptide text beside a SMILES is read from it. * marks the point of attachment. Dip = N[C@H](C(=O)O)C(c1ccccc1)c1ccccc1; Hag = O=C([C@H](CCC=[*:3])N[*:1])[*:2]; Palmitoyl = CCCCCCCCCCCCCCCC(=O)*; β3hF = N[C@H](CC(=O)O)Cc1ccccc1; Isovaleryl = CC(C)CC(=O)*; Ahx = NCCCCCC(=O)O
measure: pIC50

CCCCCCCCCCCCCCCC(=O)NCCCCCC(=O)NCCCC[C@H](NC(=O)C[C@H](Cc1ccccc1)NC(=O)[C@H]1CCC=CCCC[C@H](NC(=O)CC(C)C)C(=O)N[C@@H]([C@@H](C)O)C(=O)N[C@@H](Cc2c[nH]cn2)C(=O)N[C@@H](C(c2ccccc2)c2ccccc2)C(=O)N2CCC[C@H]2C(=O)N[C@@H](C)C(=O)N[C@@H]([C@@H](C)CC)C(=O)N1)C(=O)N[C@H](CCCCN)C(N)=O; 7.00 to 8.00
CCCCCCCCCCCCCCCC(=O)NCCCCCC(=O)NCCCC[C@@H]1NC(=O)[C@@H]2CCCN2C(=O)[C@H](C(c2ccccc2)c2ccccc2)NC(=O)[C@H](Cc2c[nH]cn2)NC(=O)[C@H]([C@@H](C)O)NC(=O)[C@@H](NC(=O)CC(C)C)CCC=CCC[C@@H](C(=O)N[C@H](CC(N)=O)Cc2ccccc2)NC(=O)[C@H]([C@@H](C)CC)NC1=O [Compd 24] (Isovaleryl-[Hag]TH[Dip]PK([Ahx-Palmitoyl])I[Hag][β3hF]-NH2; staple 1-8); 7.00 to 8.00
CCCCCCCCCCCCCCCC(=O)NCCCCCC(=O)NCCCC[C@@H]1NC(=O)[C@@H]2CCCN2C(=O)[C@H](C(c2ccccc2)c2ccccc2)NC(=O)[C@H](Cc2c[nH]cn2)NC(=O)[C@H]([C@@H](C)O)NC(=O)[C@@H](NC(=O)CC(C)C)CCC=CCC[C@@H](C(=O)N[C@H](CC(=O)N[C@H](CCCCN)C(N)=O)Cc2ccccc2)NC1=O (single isomer, unassigned) [Compd 38]; < 6.30
CCCCCCCCCCCCCCCC(=O)NCCCCCC(=O)NCCCC[C@H](NC(=O)[C@H](Cc1ccccc1)N(C)C(=O)[C@@H]1CCC=CCC[C@H](NC(=O)CC(C)C)C(=O)N[C@@H]([C@@H](C)O)C(=O)N[C@@H](Cc2c[nH]cn2)C(=O)N[C@@H](C(c2ccccc2)c2ccccc2)C(=O)N2CCC[C@H]2C(=O)N[C@@H](C)C(=O)N[C@@H]([C@@H](C)CC)C(=O)N1)C(=O)N[C@H](CCCCN)C(N)=O; 7.00 to 8.00

Next compound, pIC50 to be filled in.
Query string: Consider the compound CCCCCCCCCCCCCCCC(=O)NCCCCCC(=O)NCCCC[C@H](NC(=O)C[C@H](Cc1ccccc1)NC(=O)[C@@H]1CCC=CCC[C@@H](NC(=O)CC(C)C)C(=O)N[C@@H]([C@@H](C)O)C(=O)N[C@@H](Cc2c[nH]cn2)C(=O)N[C@@H](C(c2ccccc2)c2ccccc2)C(=O)N2CCC[C@H]2C(=O)N[C@@H](C)C(=O)N[C@@H]([C@@H](C)CC)C(=O)N1)C(=O)N[C@H](CCCCN)C(N)=O and give its recorded pIC50.
Result string: 7.00 to 8.00
